Overview of recorded Neu for various compounds
# Species: Rattus norvegicus
# Assay Summary: Open TG-GATES - Regimen: Single
# Assay type: toxicity, organism-based, Sprague-Dawley
# Parameters: regimen Single, gender Male, age 6 weeks
# Measurement Parameters: in vivo, po, 0 mg/kg, 24 h, tissue Blood, route gavage, dose level Control
Record the value in %, omitting the unit from your answer.

Worked cases, Neu given:
>  <Compound>
CN(C)CCCN1c2ccccc2CCc2ccc(Cl)cc21

>  <Measure Name>
Neu

>  <Quantitative Readout>
12.6

$$$$
>  <Compound>
CCOc1ccc(NC(=O)CC(C)O)cc1 (stereo unspecified)

>  <Measure Name>
Neu

>  <Quantitative Readout>
16.6

$$$$
>  <Compound>
CC1=C(/C=C/C(C)=C/C=C/C(C)=C/CO)C(C)(C)CCC1

>  <Measure Name>
Neu

>  <Quantitative Readout>
16.6

$$$$
>  <Compound>
COc1cc2c(c(OC)c1OC)-c1ccc(OC)c(=O)cc1[C@@H](NC(C)=O)CC2

>  <Measure Name>
Neu

>  <Quantitative Readout>
14.6

$$$$
>  <Compound>
COc1ccc2[nH]c([S+]([O-])Cc3ncc(C)c(OC)c3C)nc2c1 (stereo unspecified)

>  <Measure Name>
Neu

>  <Quantitative Readout>
17.2

$$$$
>  <Compound>
CCCNC(=O)NS(=O)(=O)c1ccc(Cl)cc1 [CHLORPROPAMIDE]

>  <Measure Name>
Neu

>  <Quantitative Readout>
15

$$$$
>  <Compound>
CN1C(=O)CN=C(c2ccccc2)c2cc(Cl)ccc21

>  <Measure Name>
Neu

>  <Quantitative Readout>
12.2

$$$$
>  <Compound>
CC/C(=C(\c1ccccc1)c1ccc(OCCN(C)C)cc1)c1ccccc1

>  <Measure Name>
Neu

>  <Quantitative Readout>
24

$$$$
>  <Compound>
CN(C)CCN(Cc1cccs1)c1ccccn1

>  <Measure Name>
Neu

>  <Quantitative Readout>
17

$$$$
>  <Compound>
CCOC(=O)CCC(=O)O[C@H]1[C@H](O[C@@H]2[C@@H](C)[C@H](O[C@H]3C[C@@](C)(OC)[C@@H](O)[C@H](C)O3)[C@@H](C)C(=O)O[C@H](CC)[C@@](C)(O)[C@H](O)[C@@H](C)C(=O)[C@H](C)C[C@@]2(C)O)O[C@H](C)C[C@@H]1N(C)C [ERYTHROMYCIN ETHYLSUCCINATE]

>  <Measure Name>
Neu

>  <Quantitative Readout>
11

$$$$

Recorded Neu (compound `C[C@@H]1C[C@H]2[C@@H]3CCC4=CC(=O)C=C[C@]4(C)[C@@]3(F)[C@@H](O)C[C@]2(C)[C@@]1(O)C(=O)CO` ): 15.6

So, `Cc1ccc(C)c(OCCCC(C)(C)C(=O)O)c1` ? Its Neu was 17.8

The value of Neu measured for the compound `NC(N)=Nc1nc(CSCCC(N)=NS(N)(=O)=O)cs1` turned out to be 15.8

// `O=C(CCCN1CCC(O)(c2ccc(Cl)cc2)CC1)c1ccc(F)cc1` : Neu value = 17

Entry `COC1=CC(=O)C[C@@H](C)[C@]12Oc1c(Cl)c(OC)cc(OC)c1C2=O` ; Neu = 16.6

Measured Neu of `NNC(=O)c1ccncc1` : 19.2
